Test system: CYP3A4/5
Assay: CYP3A4/5 inhibition in pooled human liver microsomes
Assay type: in vitro ADME
Conditions: both sexes, human, microsomes, Nifedipine oxidation; 30-min preincubation; read-out: Time-dependent inhibition IC50

{"compound.smiles": "CN1CCC(COc2cnc(-c3cccc(Cn4nc(-c5cccc(C#N)c5)ccc4=O)c3)nc2)CC1", "tgt": "CYP3A4/5", "units.symbol": "µM", "IC50": 25}

* * *

Test system: CYP3A4/5
Assay: CYP3A4/5 inhibition in pooled human liver microsomes
Type: in vitro ADME
Conditions: both sexes, human, microsomes, Nifedipine oxidation; 30-min preincubation; 49.5 µM; read-out: Time-dependent inhibition, maximum inhibition at 49.5 µM

{"compound.smiles": "CN1CCC(COc2cnc(-c3cccc(Cn4nc(-c5cccc(C#N)c5)ccc4=O)c3)nc2)CC1", "inhibition at 49.5 µM (%)": 71}

* * *

Target: CYP2C9 (Homo sapiens, UniProt P11712)
Construct: pooled mixed-gender human liver microsomes; from tissue; host or cells: pooled mixed-gender human liver microsomes
Sequence (P11712 whole entry): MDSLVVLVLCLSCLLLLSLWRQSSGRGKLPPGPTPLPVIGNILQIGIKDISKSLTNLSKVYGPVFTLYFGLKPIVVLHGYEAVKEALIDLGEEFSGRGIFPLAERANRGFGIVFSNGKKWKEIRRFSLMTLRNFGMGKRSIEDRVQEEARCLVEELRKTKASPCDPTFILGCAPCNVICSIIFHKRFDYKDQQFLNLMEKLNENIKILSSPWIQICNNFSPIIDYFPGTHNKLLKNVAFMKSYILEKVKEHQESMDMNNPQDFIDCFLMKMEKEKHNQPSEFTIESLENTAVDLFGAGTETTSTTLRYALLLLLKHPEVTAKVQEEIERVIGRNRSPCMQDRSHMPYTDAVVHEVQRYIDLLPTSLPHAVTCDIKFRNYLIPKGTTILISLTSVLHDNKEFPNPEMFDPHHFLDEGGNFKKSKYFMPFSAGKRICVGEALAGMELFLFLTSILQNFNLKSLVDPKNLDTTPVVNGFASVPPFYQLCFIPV
Assay: CYP2C9 inhibition in pooled human liver microsomes
Type: in vitro ADME
Conditions: Diclofenac 4-hydroxylation; 30-min preincubation; read-out: Time-dependent inhibition IC50

{"compound.smiles": "CN1CCC(COc2cnc(-c3cccc(Cn4nc(-c5cccc(C#N)c5)ccc4=O)c3)nc2)CC1", "IC50": "23 µM"}

* * *

Tested on: CYP3A4/5
Assay: CYP3A4/5 inhibition in pooled human liver microsomes
Assay type: in vitro ADME
Details: both sexes, human, microsomes, Midazolam 6β-hydroxylation; 30-min preincubation; read-out: Time-dependent inhibition IC50
pIC50: −log10 of the molar value.

{"compound.smiles": "CN1CCC(COc2cnc(-c3cccc(Cn4nc(-c5cccc(C#N)c5)ccc4=O)c3)nc2)CC1", "pIC50": 4.48}

* * *

Target: CYP2E1 (Homo sapiens)
Construct: pooled mixed-gender human liver microsomes; from tissue; host or cells: pooled mixed-gender human liver microsomes
Sequence (P05181 whole entry): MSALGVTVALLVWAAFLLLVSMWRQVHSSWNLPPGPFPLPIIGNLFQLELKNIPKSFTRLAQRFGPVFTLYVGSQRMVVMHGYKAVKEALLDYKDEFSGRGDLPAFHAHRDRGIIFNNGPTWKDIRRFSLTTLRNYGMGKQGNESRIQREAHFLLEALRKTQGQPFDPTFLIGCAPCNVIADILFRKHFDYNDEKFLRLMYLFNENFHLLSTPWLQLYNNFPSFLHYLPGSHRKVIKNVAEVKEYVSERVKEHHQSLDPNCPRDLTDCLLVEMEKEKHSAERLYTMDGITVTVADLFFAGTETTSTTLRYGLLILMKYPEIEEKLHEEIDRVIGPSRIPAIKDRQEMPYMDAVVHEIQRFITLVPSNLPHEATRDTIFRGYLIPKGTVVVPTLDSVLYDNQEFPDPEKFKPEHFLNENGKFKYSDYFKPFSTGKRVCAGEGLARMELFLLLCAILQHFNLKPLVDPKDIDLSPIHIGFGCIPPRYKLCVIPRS
Assay: in vitro
Format: in vitro ADME
Settings: both sexes, human, microsomes, Chlorzoxazone 6-hydroxylation; zero-minute preincubation; 49.5 µM; read-out: Direct inhibition, maximum inhibition at 49.5 µM
metric.name: inhibition at 49.5 µM (%)

{"compound": "CN1CCC(COc2cnc(-c3cccc(Cn4nc(-c5cccc(C#N)c5)ccc4=O)c3)nc2)CC1 [tepotinib]", "meas.value": 19}

* * *

System: CYP3A4/5
Assay: CYP3A4/5 inhibition in pooled human liver microsomes
Assay type: in vitro ADME
Details: both sexes, human, microsomes, Nifedipine oxidation; zero-minute preincubation; 49.5 µM; read-out: Direct inhibition, maximum inhibition at 49.5 µM

{"compound": "CN1CCC(COc2cnc(-c3cccc(Cn4nc(-c5cccc(C#N)c5)ccc4=O)c3)nc2)CC1 [tepotinib]", "inhibition at 49.5 µM": "64%"}

* * *

Molecular target: CYP2A6 (Homo sapiens, UniProt P11509)
Construct: pooled mixed-gender human liver microsomes; from tissue; host or cells: pooled mixed-gender human liver microsomes
Sequence (P11509 whole entry): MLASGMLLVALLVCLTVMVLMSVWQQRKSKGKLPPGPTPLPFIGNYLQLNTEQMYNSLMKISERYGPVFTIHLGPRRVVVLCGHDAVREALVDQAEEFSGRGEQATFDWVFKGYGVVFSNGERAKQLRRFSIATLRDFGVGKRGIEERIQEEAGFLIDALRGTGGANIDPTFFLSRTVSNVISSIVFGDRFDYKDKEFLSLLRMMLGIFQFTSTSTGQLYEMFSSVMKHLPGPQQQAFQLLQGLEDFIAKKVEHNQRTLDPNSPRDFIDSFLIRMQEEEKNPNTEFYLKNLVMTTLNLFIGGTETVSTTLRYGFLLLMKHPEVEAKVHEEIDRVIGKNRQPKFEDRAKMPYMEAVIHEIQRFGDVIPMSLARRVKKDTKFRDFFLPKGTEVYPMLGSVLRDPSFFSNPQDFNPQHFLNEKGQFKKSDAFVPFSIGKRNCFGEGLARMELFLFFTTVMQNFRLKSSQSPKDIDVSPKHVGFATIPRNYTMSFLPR
Assay: CYP2A6 inhibition in pooled human liver microsomes
Type: in vitro ADME
Conditions: both sexes, human, pooled human liver microsomes, probe coumarin, Coumarin 7-hydroxylation; zero-minute preincubation; 49.5 µM; read-out: Direct inhibition, maximum inhibition at 49.5 µM

{"compound.smiles": "CN1CCC(COc2cnc(-c3cccc(Cn4nc(-c5cccc(C#N)c5)ccc4=O)c3)nc2)CC1", "units.symbol": "%", "inhibition at 49.5 µM": 51}

The reported measurements were obtained from paper PMC10447267.
